Data origin: ChEMBL document CHEMBL3988442

target: Chromo domain-containing protein 1 (Saccharomyces cerevisiae (strain ATCC 204508 / S288c) (Baker's yeast)) (UniProt P32657); assay: ScCHD-1 Enzyme Inhibition Assay; assay type: functional; set-up: scale not given: in the data most compounds retested in dose-response had high values; details: 30 µM
Sequence (P32657 whole entry, the tested form may be a part): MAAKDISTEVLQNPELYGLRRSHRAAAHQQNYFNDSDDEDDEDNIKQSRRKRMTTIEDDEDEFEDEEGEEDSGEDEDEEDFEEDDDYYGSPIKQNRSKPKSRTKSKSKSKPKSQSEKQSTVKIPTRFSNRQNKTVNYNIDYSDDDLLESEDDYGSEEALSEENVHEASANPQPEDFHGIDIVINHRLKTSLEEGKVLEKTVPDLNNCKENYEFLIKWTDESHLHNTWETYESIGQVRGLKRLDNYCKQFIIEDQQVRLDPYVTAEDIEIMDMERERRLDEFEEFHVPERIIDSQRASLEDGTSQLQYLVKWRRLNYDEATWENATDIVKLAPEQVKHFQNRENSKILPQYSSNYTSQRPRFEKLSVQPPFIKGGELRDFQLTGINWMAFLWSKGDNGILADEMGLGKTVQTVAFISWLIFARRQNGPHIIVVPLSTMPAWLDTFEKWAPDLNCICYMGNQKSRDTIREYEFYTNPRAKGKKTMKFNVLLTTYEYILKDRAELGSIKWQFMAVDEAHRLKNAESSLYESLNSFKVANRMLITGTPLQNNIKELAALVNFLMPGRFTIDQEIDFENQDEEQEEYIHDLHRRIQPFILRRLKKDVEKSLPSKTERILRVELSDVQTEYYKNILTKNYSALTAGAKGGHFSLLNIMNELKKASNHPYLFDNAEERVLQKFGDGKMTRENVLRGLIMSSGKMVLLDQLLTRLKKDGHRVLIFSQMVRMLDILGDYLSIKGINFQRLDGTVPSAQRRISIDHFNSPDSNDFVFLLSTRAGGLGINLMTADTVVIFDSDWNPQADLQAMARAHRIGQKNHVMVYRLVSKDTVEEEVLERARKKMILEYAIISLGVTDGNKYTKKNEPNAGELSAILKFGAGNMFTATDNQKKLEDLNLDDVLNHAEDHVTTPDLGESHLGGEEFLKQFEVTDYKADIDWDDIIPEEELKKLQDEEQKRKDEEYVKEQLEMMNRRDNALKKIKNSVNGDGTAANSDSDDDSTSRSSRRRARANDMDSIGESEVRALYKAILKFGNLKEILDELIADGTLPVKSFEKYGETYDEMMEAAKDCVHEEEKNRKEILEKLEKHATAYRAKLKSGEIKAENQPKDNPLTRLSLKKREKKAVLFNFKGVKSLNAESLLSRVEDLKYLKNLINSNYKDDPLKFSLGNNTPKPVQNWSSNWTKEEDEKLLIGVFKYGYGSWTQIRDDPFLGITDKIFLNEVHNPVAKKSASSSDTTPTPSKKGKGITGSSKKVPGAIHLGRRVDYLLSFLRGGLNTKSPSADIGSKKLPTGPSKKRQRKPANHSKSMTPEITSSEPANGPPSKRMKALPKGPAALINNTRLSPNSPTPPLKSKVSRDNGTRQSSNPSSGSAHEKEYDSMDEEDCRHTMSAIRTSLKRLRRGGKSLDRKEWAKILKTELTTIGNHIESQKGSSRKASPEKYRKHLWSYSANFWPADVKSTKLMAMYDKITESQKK
Form field: Percent Effect (one value per entry).
Numeric answer only, unit % assumed.

{"MOLECULE": "Cc1nc2ccccc2nc1CN1CCCC1Cn1cncn1 (stereo not given)", "Percent Effect (%)": -23.2}
{"MOLECULE": "COc1ccccc1CC(=O)NS(C)(=O)=O", "Percent Effect (%)": -6.74}
{"MOLECULE": "N#Cc1cn(CC(=O)NC2CC2)c2ccc(Br)cc2c1=O", "Percent Effect (%)": 74.8}

Request: Any idea what its Percent Effect is? The molecule is Cc1noc2nc(C3CCN(Cc4cccnc4)CC3)cc(C(F)F)c12
Result: 1.36

Request: Now try Cc1noc(C)c1CCC(=O)N1CCN(CCn2cncn2)CC1 .
Result: -3.13

Request: Also check CCc1cc(NCC(O)CN2CCCCC2)n2ncnc2n1 (stereo not given)
Result: -4.78

Request: Query N#Cc1ccc(F)c(CN2CCCC2Cn2cccn2)c1 (stereo not given) next
Result: 4.66

Request: Repeat with CCN1CC2(CC1=O)CN(Cc1ccco1)CCN(C(=O)N(C)C)C2 (stereo not given)
Result: 0.322

Request: And the next one, CCN1CCCC(CNC(=O)C2(c3cccc(Cl)c3)CC2)C1 (stereo not given) ?
Result: -13.8

Request: Another molecule to look at: CCc1ncncc1C(=O)NCCN1CCC(C)CC1
Result: -2.04

Request: Next: Cc1ccc(CN2CC(C(=O)N3CCCC3)C3(CCOCC3)C2)s1 (stereo not given)
Result: -4.71

Request: Subsequent entry: O=C(c1ccc[nH]1)N1CCCC2(CCN(c3ccsc3)C2=O)C1 (stereo not given)
Result: -1.57

Request: Next up: NC(=O)N1CCC2(CCN(Cc3cccc(F)c3)CC2)CC1
Result: -1.58

Request: Again, but for CS(=O)(=O)N[C@@H]1CCO[C@]2(CCN(C(=O)C3=CCCC3)C2)C1
Result: -3.57

Request: Further, for COC(=O)c1ccc2ccn(CC3CCNC3)c(=O)c2c1 (stereo not given) ?
Result: -5.95

Request: Do the same for CCC1CCCCN1C(=O)c1ccc2[nH]nnc2c1 (stereo not given) please
Result: -1.41

Request: One more molecule: CCn1ccnc1-c1nc2cc(S(=O)(=O)N3CCCC3)ccc2n1C
Result: 100

Request: How about this molecule: O=C(CN1CCCCC1Cn1cccn1)NC1CCN(C2CC2)CC1 (stereo not given)
Result: -1.27

Request: Now consider COCCN1CCc2cc(C(=O)N(C)C)c(NC(C)C)nc2CC1 .
Result: -3.16

Request: What do you get for CC(C)OCCOCc1cccc(NC(=O)NCc2ccncc2)c1 ?
Result: -2.65

Request: And then CC(C)n1c(C2CCCN(CCS(C)(=O)=O)C2)nc2ccccc21 (stereo not given) , what is it?
Result: -2.93

----------
Target: Ubiquitin-activating enzyme e1, putative (Leishmania donovani (strain BPK282A1))
Sequence (whole entry): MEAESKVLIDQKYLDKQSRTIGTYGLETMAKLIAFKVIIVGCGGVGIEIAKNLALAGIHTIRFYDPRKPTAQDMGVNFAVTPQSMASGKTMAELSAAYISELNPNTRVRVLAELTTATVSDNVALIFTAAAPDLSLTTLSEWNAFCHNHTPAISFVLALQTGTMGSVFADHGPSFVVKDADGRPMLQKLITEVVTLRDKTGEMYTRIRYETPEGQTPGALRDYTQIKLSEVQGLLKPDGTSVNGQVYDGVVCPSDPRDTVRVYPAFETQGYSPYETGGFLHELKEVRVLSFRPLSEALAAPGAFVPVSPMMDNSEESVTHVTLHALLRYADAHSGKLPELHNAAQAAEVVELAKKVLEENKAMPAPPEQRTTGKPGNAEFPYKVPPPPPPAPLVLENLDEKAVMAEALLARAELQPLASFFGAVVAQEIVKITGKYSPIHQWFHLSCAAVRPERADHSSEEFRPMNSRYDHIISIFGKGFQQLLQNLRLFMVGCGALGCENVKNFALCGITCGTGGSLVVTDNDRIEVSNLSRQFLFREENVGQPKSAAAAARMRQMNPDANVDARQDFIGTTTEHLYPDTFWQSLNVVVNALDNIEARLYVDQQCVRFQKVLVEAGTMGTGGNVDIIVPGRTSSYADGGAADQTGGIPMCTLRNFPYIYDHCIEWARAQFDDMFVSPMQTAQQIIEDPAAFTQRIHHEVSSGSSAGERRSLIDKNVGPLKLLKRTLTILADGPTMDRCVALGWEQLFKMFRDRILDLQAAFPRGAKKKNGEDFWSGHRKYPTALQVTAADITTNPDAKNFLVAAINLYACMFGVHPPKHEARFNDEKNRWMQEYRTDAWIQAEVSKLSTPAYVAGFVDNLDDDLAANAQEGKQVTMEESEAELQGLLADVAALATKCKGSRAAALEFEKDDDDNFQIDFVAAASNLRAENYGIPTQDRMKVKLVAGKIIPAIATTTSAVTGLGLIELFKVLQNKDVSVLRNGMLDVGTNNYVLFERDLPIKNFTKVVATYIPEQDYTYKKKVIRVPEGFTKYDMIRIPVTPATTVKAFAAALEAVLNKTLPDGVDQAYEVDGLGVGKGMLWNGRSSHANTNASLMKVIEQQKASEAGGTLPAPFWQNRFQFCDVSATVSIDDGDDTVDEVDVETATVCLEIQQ
Experiment: Leishmania donovani Ubiquitin Activating Enzyme (LdE1)
Assay type: functional
Design: scale not given: direction of the effect not stated beside the values
Conditions: 30 µM
Results with a measured potency or affinity are listed apart.
MEASUREMENT_KIND: Percent Effect (%)
Just the number in %, nothing appended.

{"COMPOUND": "CCc1ccc(C(=O)N2CCN(CCS(C)(=O)=O)CC2)o1", "Percent Effect, %": -5.26}
{"COMPOUND": "CCN(Cc1ccc2c(c1)OCO2)Cc1nc(C)no1", "Percent Effect, %": 18.9}
{"COMPOUND": "O=C(CCc1nccs1)N1CCN(c2ccc(Br)cn2)CC1", "Percent Effect, %": 7.79}

Request: If you can, please state the reported Percent Effect value of O=C(NCCN1CCCCC1)c1nc2ccccc2c(=O)[nH]1 .
Result: 9.33

Request: // next record CCN(CC)c1ccc(-c2nc(-c3cccc(OC)c3OC)no2)cn1
Result: 8

Request: Try this compound too: Clc1ccccc1C1(c2ccnc(CC3CC3)n2)CCNCC1
Result: -7.79

Request: Here is the next compound: CN(Cc1ccco1)C(=O)[C@H]1CSCN1C(=O)OC(C)(C)C
Result: 15.8

Request: Can you handle CC(C)n1cnc2c1C(C(=O)NCCC#N)N(Cc1ccccc1)CC2 (configuration not stated) next?
Result: 16

Request: Another compound to check: CC(C)NC(=O)COc1nc(C(C)C)no1
Result: -2.7

Request: Cc1ccsc1[C@@H]1CCN(C(=O)c2cc3ccccc3[nH]2)C[C@H]1O ?
Result: -1.39

Request: Let us now turn to Cn1nccc1CNC(=O)Nc1cc(C(F)(F)F)c[nH]c1=O
Result: 7.89

Request: Please give the result for Cc1nc(C)n(CC2CCCCN2CCS(C)(=O)=O)n1 (configuration not stated) too.
Result: -2.7

----------
Reported values of Percent Effect for individual entries
molecular target: Protein translocase subunit SecA (Escherichia coli (strain K12)); assay: Assay to Identify E. coli SecA ATPase Inhibitors; type: functional; parameters: scale not given: direction of the effect not stated beside the values; details: 30 µM
Entries with a potency or affinity are not part of this list.
Could you give me the number in %? Just the number is fine.

Below are worked cases with known answers.
{"MOLECULE": "O=C(NCc1cnc2n1CCN(Cc1ccsc1)CC2)C1CCC1", "TARGET_OR_TEST_SYSTEM": "Protein translocase subunit SecA (Escherichia coli (strain K12))", "MEASUREMENT_KIND": "Percent Effect", "NUMERIC_READOUT": -5.62}
{"MOLECULE": "CS(=O)(=O)N1CC[C@]2(C[C@@H](OCC3CCC3)CO2)C1", "TARGET_OR_TEST_SYSTEM": "Protein translocase subunit SecA (Escherichia coli (strain K12))", "MEASUREMENT_KIND": "Percent Effect", "NUMERIC_READOUT": -3.98}
{"MOLECULE": "CN1C(=O)CC(C(=O)O)C12CCN(Cc1ccc(F)cc1Cl)CC2 (stereo unspecified)", "TARGET_OR_TEST_SYSTEM": "Protein translocase subunit SecA (Escherichia coli (strain K12))", "MEASUREMENT_KIND": "Percent Effect", "NUMERIC_READOUT": -3.75}
{"MOLECULE": "Cn1cnnc1C1CCCN(C(=O)NCc2ccc3c(c2)OCO3)C1 (stereo unspecified)", "TARGET_OR_TEST_SYSTEM": "Protein translocase subunit SecA (Escherichia coli (strain K12))", "MEASUREMENT_KIND": "Percent Effect", "NUMERIC_READOUT": -5.4}
{"MOLECULE": "O=C(c1ccc[nH]1)N1C[C@H]2CC[C@@H]1CN(C1Cc3ccccc3C1)C2", "TARGET_OR_TEST_SYSTEM": "Protein translocase subunit SecA (Escherichia coli (strain K12))", "MEASUREMENT_KIND": "Percent Effect", "NUMERIC_READOUT": -0.308}
{"MOLECULE": "CCCc1cc(=O)[nH]c2nnc(SCC(=O)NCc3ccc(C)cc3)n12", "TARGET_OR_TEST_SYSTEM": "Protein translocase subunit SecA (Escherichia coli (strain K12))", "MEASUREMENT_KIND": "Percent Effect", "NUMERIC_READOUT": -0.143}
{"MOLECULE": "Cc1ccc(NC(=O)NCCCc2n[nH]c(N)c2C#N)cc1", "TARGET_OR_TEST_SYSTEM": "Protein translocase subunit SecA (Escherichia coli (strain K12))", "MEASUREMENT_KIND": "Percent Effect", "NUMERIC_READOUT": -1.33}
{"MOLECULE": "Cc1nc(CN2CCCC(NCCc3ccccc3Cl)C2)no1 (stereo unspecified)", "TARGET_OR_TEST_SYSTEM": "Protein translocase subunit SecA (Escherichia coli (strain K12))", "MEASUREMENT_KIND": "Percent Effect", "NUMERIC_READOUT": -4.45}
{"MOLECULE": "CC(NC(=O)COc1ccc(F)cc1)c1nnc2n1CCCCC2 (stereo unspecified)", "TARGET_OR_TEST_SYSTEM": "Protein translocase subunit SecA (Escherichia coli (strain K12))", "MEASUREMENT_KIND": "Percent Effect", "NUMERIC_READOUT": -3.7}
{"MOLECULE": "NC(=O)c1ccc(S(=O)(=O)NC2CCN(Cc3ccccc3)C2=O)cc1 (stereo unspecified)", "TARGET_OR_TEST_SYSTEM": "Protein translocase subunit SecA (Escherichia coli (strain K12))", "MEASUREMENT_KIND": "Percent Effect", "NUMERIC_READOUT": -3.79}

Next molecule, Percent Effect to be filled in.
Request: What Percent Effect value was documented for this molecule, COC(=O)N1CCc2ccc(NC(=O)c3cn(C)nn3)cc2C1 ?
Result: -6.1
